Reference source: patent US20180244777A1

biological target: human CD3ε expressed on the cell surface of T cells (Jurkat cells; human CD8+ T cells) (human, UniProt P07766 23-207); test: cell-based or functional assay
attribute-measured: Fold increase in CD69 expression [MFI normalized to neg. ctrl.], 20 µg/ml anti-CD3 IgG (fold)
Express it in fold; write the number only.

binder	observed
clone-04 (antibody, V domains shown, Recombinant rabbit IgG; also called Clone 4) VH: QSLEESGGRLVKPDETLTLTCTVSGFPLSSYAMGWFRQAPGKGLEWIGMILRSDNTYYASWAKGRFTISKTSTTVDLKITSPTTEDTATYFCARRHYNASGNPIAIGDLWGPGTLVTVSS VL: AQVLTQTPSSVSAAVGGTVTINCQSSQSVYNNNRLSWFQQKPGQPPKLLIYTTSSLASGVPSRFKGSGSGTEFTLTISDLECADAATYYCQGEFSCSRADCFNFGGGTEVVVKG	7.8

Looking up clone-06 (antibody, V domains shown, Recombinant rabbit IgG; also called Clone 6) VH: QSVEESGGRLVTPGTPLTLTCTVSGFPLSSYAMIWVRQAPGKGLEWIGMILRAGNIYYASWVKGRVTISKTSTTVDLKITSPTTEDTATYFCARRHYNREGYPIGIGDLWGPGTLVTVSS VL: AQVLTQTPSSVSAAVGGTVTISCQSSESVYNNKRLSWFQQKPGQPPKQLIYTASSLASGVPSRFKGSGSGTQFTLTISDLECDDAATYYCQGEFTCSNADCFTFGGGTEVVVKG , I found its Fold increase in CD69 expression [MFI normalized to neg. ctrl.], 20 µg/ml anti-CD3 IgG recorded as 5.3

Looking up clone-03 (antibody, V domains shown, Recombinant rabbit IgG; also called Clone 3) VH: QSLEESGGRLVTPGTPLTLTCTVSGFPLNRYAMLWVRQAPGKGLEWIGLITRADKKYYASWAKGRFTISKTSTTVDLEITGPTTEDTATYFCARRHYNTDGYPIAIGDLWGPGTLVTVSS VL: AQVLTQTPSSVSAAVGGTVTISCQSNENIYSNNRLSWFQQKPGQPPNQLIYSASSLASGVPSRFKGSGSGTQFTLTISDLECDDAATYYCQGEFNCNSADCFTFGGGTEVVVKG , I found its Fold increase in CD69 expression [MFI normalized to neg. ctrl.], 20 µg/ml anti-CD3 IgG recorded as 6.6

Looking up clone-02 (antibody, V domains shown, Recombinant rabbit IgG; also called Clone 2) VH: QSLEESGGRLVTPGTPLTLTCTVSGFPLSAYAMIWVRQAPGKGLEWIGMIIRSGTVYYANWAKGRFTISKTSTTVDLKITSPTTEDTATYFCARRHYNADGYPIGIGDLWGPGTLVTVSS VL: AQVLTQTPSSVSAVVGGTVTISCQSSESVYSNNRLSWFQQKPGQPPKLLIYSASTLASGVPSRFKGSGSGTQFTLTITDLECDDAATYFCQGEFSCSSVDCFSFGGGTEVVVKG , I found its Fold increase in CD69 expression [MFI normalized to neg. ctrl.], 20 µg/ml anti-CD3 IgG recorded as 7.4

Looking up clone-10 (antibody, V domains shown, Recombinant rabbit IgG) VH: QSLEESGGRLVTPGTPLTLTCTVSGFPLSSFAMLWVRQAPGKGLEWIGMIMRAHNMYYASWAKGRFTISKTSTTVDLEITSPTTEDTATYFCARRHYNTYGYPIAIGDLWGPGTLVTVSS VL: AQVLTQTPSSVSAAVGGTATISCQSNENIYSNNRLSWFQQKAGQPPNQLIYSASSLASGVPSRFKGSGSGTQFTLTISDLECDDAATYYCQGEFSCSSADCFTFGGGTEVVVKG , I found its Fold increase in CD69 expression [MFI normalized to neg. ctrl.], 20 µg/ml anti-CD3 IgG recorded as 6.2
